tested on: SW-620; test: NCI tumour cell line growth inhibition, 48 h
Active and inactive are the calls of the source. Rule as the data show it: active = GI50 up to about 1.1 µM and inactive = higher. Starred links: 1 amine or outer side, 2 acyl side, 3 side chain; linkers in the order of their positions; H or OH if unused. Non-standard residues stand in square brackets, D forms with d. Residues, ends and D or L forms follow the SMILES beside them. ξ: configuration not given here. Ile(3ξ) = CCC(C)[C@H](N)C(=O)O; X35 = C=CCC(O[*:1])C(=O)[*:2]; NMeV = CN[C@H](C(=O)O)C(C)C; NMeA = CN[C@@H](C)C(=O)O; βAla = NCCC(=O)O
Measure name: GI50

• O=C(N[C@H]1c2ccsc2/C(=N/O)[C@H]1O)C(F)(F)F = > 100 µM (inactive)
• CC(C)(C)[Si](C)(C)Oc1ccc(C2CNC(=O)C23CCC(=O)N3Cc2ccccc2)cc1 (stereo not drawn) = 15.1 µM (inactive)
• C=CCC1OC(=O)CCNC(=O)[C@H](C)N(C)C(=O)[C@H](C(C)C)N(C)C(=O)[C@H](C(C)CC)NC(=O)[C@@H]2CCCN2C1=O (stereo partly drawn) (cyclo([Ile(3ξ)][NMeV][NMeA][βAla][X35]P)) = 5.07 µM (inactive)
